- System: Klebsiella pneumoniae
- MEASUREMENT_NOTES: Antimicrobial activity against Klebsiella pneumoniae expressing beta-lactamase SHV by Etest based on multiple determinants
- Type: functional
Task for the reader: assign each of the following molecules its reported MIC.
Supply the numeric figure in µg/mL, leaving out any unit text.

Given the entry NC[C@H]1O[C@H](O[C@H]2[C@H](O)[C@@H](O[C@H]3O[C@H](CO)[C@@H](O)[C@H](N)[C@H]3O)[C@H](N)C[C@@H]2N)[C@H](N)C[C@@H]1O , what MIC was observed with Klebsiella pneumoniae? 0.5

Request: MIC, test system Klebsiella pneumoniae, entry C[C@H]1COc2c(N3CCN(C)CC3)c(F)cc3c(=O)c(C(=O)O)cn1c23.C[C@H]1COc2c(N3CCN(C)CC3)c(F)cc3c(=O)c(C(=O)O)cn1c23.O 0.12

Query for Klebsiella pneumoniae: what MIC does the record show for CN(C)c1cc(NC(=O)CNC(C)(C)C)c(O)c2c1C[C@H]1C[C@H]3[C@H](N(C)C)C(O)=C(C(N)=O)C(=O)[C@@]3(O)C(O)=C1C2=O ? 0.5

Lab note: need MIC with Klebsiella pneumoniae for entry CN(C)c1ccc(O)c2c1C[C@H]1C[C@H]3[C@H](N(C)C)C(O)=C(C(N)=O)C(=O)[C@@]3(O)C(O)=C1C2=O , please look it up. 2

Lab note: need MIC with Klebsiella pneumoniae for entry CO/N=C(\C(=O)N[C@@H]1C(=O)N2C(C(=O)O)=C(COC(C)=O)CS[C@H]12)c1csc(N)n1 , please look it up. 2

I'm curious: which MIC was measured for CC(C)(O/N=C(\C(=O)N[C@@H]1C(=O)N2C(C(=O)[O-])=C(C[n+]3ccccc3)CS[C@H]12)c1csc(N)n1)C(=O)O tested on Klebsiella pneumoniae? 16
